Test system: MS2 coat protein
Experiment: apparent KD of MS2 coat protein; designed switch direction (-1 OFF switch, 1 ON switch): -1; higher = weaker reporter binding
Details: input ligand: FMN 200 uM
Observed property: apparent KD of MS2 coat protein (nM)
Respond numerically; units are nM and should not be typed.

The examples below pair each entry with its known result.
Lookup: Lab note: need apparent KD of MS2 coat protein for CAGUACUGAGGAUAUACAUGAGGAUCACCCAUGUGUCUUCAAUUAGGAAACUAGUUAUGUAGAAGGCAGUACUG [Omei Ex3 Mod of Eli 4.27 v9] (Eterna round: R97, puzzle: Exclusion 3) on MS2 coat protein, anyone have it?
Found: 770

Lookup: Repeat with UUUAAGGUAAUUAAGAUCACAUGAGGAUCACCCAUGUAUAUAUAGGAUAUCAGCUCGAUUAGAGCUGAGAAGGAUAUAUACAUA [ExNG3/6-C1] (Eterna round: R96, puzzle: Exclusion NG 3)
Found: 66.1

Lookup: Repeat with AUUCCUCCUGUUAGGAUAUGCAUCGGGCUUCCGCAGCAGAAGGAACAUGAGGAUCACCCAUGUCAAAUAAAAUC (Eterna round: R97, puzzle: Brourd's mod of Exclusion 4)
Found: 231

***
Lookup: Lab note: need apparent KD of MS2 coat protein for UGGUCCCUGAAACAUGAGGAUCACCCAUGUAUAAUGAGGACAAAGGAUAUAUCCCACCAGGUAGGGUAGAAGGUUGAACUCUAC [Eternabot solution 42] (Eterna round: R96, puzzle: Exclusion NG 3) on MS2 coat protein, anyone have it?
Found: 13.1

Lookup: Repeat with UUGAUGUGAGGAUAUAUAUGGUUGUUUUUUUAUUUUUUAUUACUUGAGGAUCACCCAAGUAGAAGGCGCUACGU [JR_Ex2_Sub068] (Eterna round: R97, puzzle: Exclusion 2)
Found: 25.5

Lookup: Repeat with AGGUGUAGAGGAUAUUGAGUUCUUUACAUGAGGAUCACCCAUGUCCUGGGCACCCAGGACCAAGAAGGCUACACCA [Omei Ex5 D31] (Eterna round: R97, puzzle: Exclusion 5)
Found: 38.4

Lookup: Repeat with CCUCUGGUAGGAUAUACUGGUGGCGGCAUUAUCGUGAAGGUACAUGAGGAUCACCCAUGUAGAAGGGCUCAAGU [Eternabot (L2) Solution 83] (Eterna round: R97, puzzle: Exclusion 2)
Found: 38.3

Lookup: Repeat with AAAUAAAACAAGCAAUAAAACAUGAGGAUCACCCAUGUAAAGGGUGAAGUUCGCACCCAAAAAUAAAAUAAAUAAAA [Denovo Take 6, 5] (Eterna round: R96, puzzle: Sensor v2, turn-off variant)
Found: 22.1

Lookup: Repeat with CCAACUCAGGAGGAUAUCUCCGCGAGUUCACGAAGAGAAGGCCUGACAUGAGGAUCACCCAUGUGUCCAUGAGG [Eternabot (Original) Solution 8] (Eterna round: R97, puzzle: Exclusion 6)
Found: 106

Lookup: Repeat with CAGCUGUCAGGAUAUCGUGCAUACAACGAAAGUUCUAUGUGCGAGAAGGGACAUGAGGAUCACCCAUGUUUACG [Omei Ex4 A24] (Eterna round: R97, puzzle: Exclusion 4)
Found: 48

Lookup: Repeat with UCAACGCAAGGAUAUACUUGCGGUGAUGUUCGAAUUCUUCUACUUGAGGAUCACCCAAGUAGAAGGUGCGAUGA [jl-ex2.4.62 ViennaUCT mod] (Eterna round: R97, puzzle: Exclusion 2)
Found: 12.5

Lookup: Repeat with GAUUGAGAGCAGGAUAUCUUAGAAAUGUAUUAAAGAGAAGGGCUCACAUGAGGAUCACCCAUGUGGUCCUAGAU [JL Dibiri mod 16] (Eterna round: R96, puzzle: Exclusion 6)
Found: 306

Lookup: Repeat with CAAGCUUUUCCAUUUCUAUACAUGAGGAUCACCCAUGUCCCGAGUUGGGUGAGCACUCUGGUCGUCGUUUCUACCAA [Envele] (Eterna round: R96, puzzle: Sensor v2, turn-off variant)
Found: 432

Lookup: Repeat with GGUUGGCGAGGAUAUACAUGAGGAUCACCCAUGUGGUCCUGUGGCUGGUCUAAACUUUGUAGAAGGCGCGGGUC [salish99_ex3_r4_022] (Eterna round: R97, puzzle: Exclusion 3)
Found: 84.9

Lookup: Repeat with UUUUUGAUAGGAUAUACAUGAGGAUCACCCAUGUGUGACAGGACUGACGCUCUUCAUCGUAGAAGGAUCCGAGC [Eternabot (L1) Solution 97] (Eterna round: R97, puzzle: Exclusion 3)
Found: 27.4

Lookup: Repeat with UAUUUAGCAAGCAGAUCCCACAUGAGGAUCACCCAUGUUUUCUGAAAAUAAAUUAAAAUAGCUGAAGCUCGUCUUAU [Winner reversed engineered 38] (Eterna round: R97, puzzle: Sensor, turn-off variant 1)
Found: 139

Lookup: Repeat with GGAUUACAUGAGGAUCACCCAUGUGAGGAUAUCGAUGUCCAGUAAUACGUGCGGGACUCGAGAAGGCACUUGGA [salish99-ex1-70] (Eterna round: R96, puzzle: Exclusion 1)
Found: 432

Lookup: Repeat with UACAUGAGGAUCACCCAUGUUUUGUCGUGUAUGGUAUUUAUCUAGGAUAUCAAUUGAUUAAUUUAUGAGAAGGAGAAUAUUAAU [JMF's solution 60] (Eterna round: R96, puzzle: Exclusion NG 3)
Found: 39.9
